Where these numbers come from: paper PMC8196010

- tested on: SARS-CoV-1 E protein PBM (Severe acute respiratory syndrome coronavirus)
- assay details: ITC
parameter: pKd
pKd here: minus log base 10 of the concentration, concentration in moles per litre.

Tell me the measured pKd of PALS1 255-336, Q8N3R9 (protein) KIVRIEKARDIPLGATVRNEMDSVIISRIVKGGAAEKSGLLHEGDEVLEINGIEIRGKDVNEVFDLLSDMHGTLTFVLIPSQ , please. 4.53
